- System: S. aureus
- assay_summary: MIC, agar dilution method, ESKAPE strains
- Type: cell-based
- condition_description: Staphylococcus aureus; read-out: MIC S. aureus MDR(4)
Record form. Attribute: MIC. Fill in for each entry.
Please give a number only; it is taken to be in µg/mL.

Which MIC value is on record for COc1ccc2nccc(-n3cc(CCNCc4ccc5c(c4)NC(=O)CO5)nn3)c2c1 ?
32

Same question, COc1ccc2nccc(-n3cc(CCNC(=O)c4ccc5c(c4)NC(=O)CS5)nn3)c2c1 [BDM71367 (11a)] this time
4

And the next one, COc1ccc2nccc(-n3cc(CCNCc4ccc5c(c4)NC(=O)CS5)nn3)c2n1 [BDM71403 (10a)] ?
0.25

Follow-up entry: COc1ccc2nccc(-n3cc(CCNCc4ccc5c(c4)OCCO5)nn3)c2c1
1

Another compound: COc1ccc2nccc(-n3cc(CCNCc4ccc5c(c4)NC(=O)CS5)nn3)c2c1
1

Repeat with COc1ccc2nccc(-n3cc(CCNCc4ccc5c(c4)OCCO5)nn3)c2n1 [BDM71404 (10b)]
0.25

###

- study_target: wild-type E. coli DNA gyrase (Escherichia coli, UniProt P0AES4+P0AES6)
- assay_summary: biochemical
- condition_description: read-out: IC50 E. coli WT
quantity_measured: IC50 (nM)
Use nM as the unit, but write only the number.

Return reported IC50; argument: COc1ccc2nccc(-n3cc(CCNCc4ccc5c(c4)NC(=O)CO5)nn3)c2c1
780

What do you get for COc1ccc2nccc(-n3cc(CCNCc4ccc5c(c4)NC(=O)CS5)nn3)c2n1 [BDM71403 (10a)] ?
80

Now consider COc1ccc2nccc(-n3cc(CCNCc4ccc5c(c4)NC(=O)CS5)nn3)c2c1 .
1170

Would you kindly repeat that for COc1ccc2nccc(-n3cc(CCNCc4ccc5c(c4)OCCO5)nn3)c2c1 ?
130

Next entry: COc1ccc2nccc(-n3cc(CCNCc4ccc5c(c4)OCCO5)nn3)c2n1 [BDM71404 (10b)]
380

###

- Tested on: S. aureus
- assay_summary: MIC, agar dilution method, ESKAPE strains
- Format: cell-based
- condition_description: Staphylococcus aureus; read-out: MIC S. aureus WT(3)
quantity_measured: MIC

Suppose we examine the molecule COc1ccc2nccc(-n3cc(CCNCc4ccc5c(c4)OCCO5)nn3)c2n1 [BDM71404 (10b)] ; what MIC value has been reported?
0.25 µg/mL

// query: COc1ccc2nccc(-n3cc(CCNC(=O)c4ccc5c(c4)OCCO5)nn3)c2c1 [BDM71373 (11b)]
≥ 32 µg/mL

Now consider COc1ccc2nccc(-n3cc(CCNC(=O)c4ccc5c(c4)NC(=O)CS5)nn3)c2c1 [BDM71367 (11a)] .
4 µg/mL

Quick one: COc1ccc2nccc(-n3cc(CCNCc4ccc5c(c4)NC(=O)CO5)nn3)c2c1
16 µg/mL

Also check COc1ccc2nccc(-n3cc(CCNCc4ccc5c(c4)NC(=O)CS5)nn3)c2c1
1 µg/mL

For COc1ccc2nccc(-n3cc(CCNCc4ccc5c(c4)NC(=O)CS5)nn3)c2n1 [BDM71403 (10a)] then?
0.25 µg/mL

Cool, now COc1ccc2nccc(-n3cc(CCNCc4ccc5c(c4)OCCO5)nn3)c2c1
1 µg/mL
